# MEASUREMENT PROTOCOL: Solubility into JP2 solution (pH 6.8)
# Type: physicochemical
# TEST SETTINGS: aqueous buffer, thermodynamic from solid; JP2 solution pH 6.8, room temperature, at 120 minutes after the addition
REPORTED METRIC: solubility at 120 minutes (µg/mL)
Give the value, in units of µg/mL, as a plain number.

q: Give the measured solubility at 120 minutes of Cc1nc(-c2ccc(OCC(C)C)c(-n3cnnn3)c2)sc1C(=O)[O-].[Na+] .
a: 184
